Tested on: HepG2 Srxn1-GFP reporter cells (+30 nM CDDO-Me)
Test: Srxn1-GFP intensity median modified Z-score relative to plate median; higher = stronger NRF2 / oxidative stress reporter activation, active = hit call of the paper
Details: 10 µM; exposure time: 24h
In all, about 2,300 compounds went through this assay and about 330 (14%) showed activity.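 The calls were made as follows: active = median modified Z-score above 1.96; inactive = 1.96 or below.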 Only a sample is shown.
Classes used: TRUE for active, FALSE for inactive

INSERT INTO results (compound, classification) VALUES
  ('Cc1[nH]oc(=NS(=O)(=O)c2ccc(N)cc2)c1C', 'FALSE'),
  ('C[C@@H]1CC[C@@]2(OC1)OC1CC3C4CC=C5C[C@@H](O)CC[C@]5(C)C4CC[C@]3(C)C1[C@@H]2C (stereo not given in full)', 'FALSE'),
  ('O=c1oc2cc(O)ccc2s1', 'TRUE'),
  ('NCCOB(c1ccccc1)c1ccccc1', 'TRUE'),
  ('Cc1cc(=O)oc2cc(O)ccc12', 'FALSE');

----------
Tested on: HepG2 Srxn1-GFP reporter cells (+30 nM CDDO-Me)
Assay: Srxn1-GFP intensity median modified Z-score relative to plate median; higher = stronger NRF2 / oxidative stress reporter activation, active = hit call of the paper
Conditions: 10 µM; exposure time: 24h
The whole screen tested about 2,300 compounds, of which about 330 (14%) showed activity. The list is a sample of the results.
Readout Label: Srxn1-GFP intensity median modified Z-score

INSERT INTO assay_data (compound, value_measured) VALUES
  ('CCn1cc(C(=O)O)c(=O)c2cc(F)c(N3CCN(C(=O)CCSC)CC3)cc21', 0.401),
  ('COc1cc(C)c2c(=O)c(-c3ccccc3)coc2c1', 0.917),
  ('CN[C@@H]1[C@H](OC2[C@H](O[C@H]3[C@H](O)[C@@H](O)[C@H](N=C(N)N)[C@@H](O)[C@@H]3N=C(N)N)O[C@@H](C)[C@]2(O)C=O)O[C@@H](CO)[C@H](O)[C@H]1O (stereo partly drawn)', -0.445),
  ('COc1cc(-c2coc3cc(OC)c(OC)c(OC)c3c2=O)cc(OC)c1OC', -0.364),
  ('COc1ccc2oc(-c3ccccc3)c(OC)c(=O)c2c1', 1.28),
  ('COc1ccc2c(c1)O[C@@H]1COc3cc(OC)c(OC)cc3C1C2=O (stereo partly drawn)', 22.8),
  ('COc1ccc2c(c1)O[C@H]1c3ccc(OC)cc3OC[C@@H]21', -0.45),
  ('COc1ccc([C@H]2Oc3cc(OC)cc(OC)c3C[C@H]2O)cc1', 0);

----------
System: HepG2 Srxn1-GFP reporter cells (+30 nM CDDO-Me)
Assay: Srxn1-GFP intensity median modified Z-score relative to plate median; higher = stronger NRF2 / oxidative stress reporter activation, active = hit call of the paper
Conditions: 10 µM; exposure time: 24h
Screen size: about 2,300 compounds; about 330 (14%) showed activity.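 Rule for the calls: active = median modified Z-score above 1.96; inactive = 1.96 or below.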 Only a sample is shown.
Outcomes: label 1 for active, label 0 for inactive

INSERT INTO assay_data (compound, classification) VALUES
  ('CN1C(=O)CC[C@H]1c1cccnc1', 'label 0'),
  ('CON=C1CN(c2nc3c(cc2F)c(=O)c(C(=O)O)cn3C2CC2)CC1CN (configuration not stated)', 'label 0'),
  ('Cc1nc(COP(=O)(O)O)cc2c1[O][Mn][O]c1c(cc(COP(=O)(O)O)nc1C)CN(CC(=O)O)CCN(CC(=O)O)C2', 'label 0'),
  ('Nc1ccc(S(=O)(=O)N=c2ccc(Cl)n[nH]2)cc1', 'label 0'),
  ('N=c1[nH]nc(-c2cccc(Cl)c2Cl)c(=N)[nH]1', 'label 0'),
  ('O=C(/C=C/C(=O)Oc1ccccc1C(=O)O)Oc1ccccc1C(=O)O', 'label 0'),
  ('O=C(O)c1cccnc1', 'label 0'),
  ('C#C[C@]1(O)CCC2C3CCC4=Cc5oncc5C[C@]4(C)C3CC[C@@]21C (some centres not stated)', 'label 0'),
  ('NC(=O)c1cc[n+](C=C2CSC3C(NC(=O)C(c4ccccc4)S(=O)(=O)O)C(=O)N3C2C(=O)O)cc1 (configuration not stated)', 'label 0'),
  ('O=C1C[C@@H](c2ccc(O)cc2)Oc2cc(O)cc(O)c21', 'label 0'),
  ('C1CCN2C[C@@H]3C[C@H](CN4CCCC[C@@H]34)[C@H]2C1', 'label 0'),
  ('COc1ccc2cc1Oc1ccc(cc1)C[C@H]1c3c(cc4c(c3Oc3cc5c(cc3OC)CCN(C)[C@@H]5C2)OCO4)CCN1C', 'label 1'),
  ('CN1C(C(=O)N=c2cccc[nH]2)C(=O)c2ccccc2S1(=O)=O (configuration not stated)', 'label 0'),
  ('O=C(Nc1cc(Cl)cc(Cl)c1O)c1c(O)c(Cl)cc(Cl)c1Cl', 'label 1'),
  ('CN1CCC[C@H]1c1cccnc1', 'label 1'),
  ('COc1ccc2cc1Oc1ccc(cc1)C[C@H]1c3cc(c(OC)cc3CCN1C)Oc1c(OC)c(OC)cc3c1[C@H](C2)N(C)CC3', 'label 1'),
  ('O=C1CC(c2ccccc2)Oc2ccccc21 (configuration not stated)', 'label 1');

----------
Test system: HepG2 Srxn1-GFP reporter cells (+30 nM CDDO-Me)
Assay: Srxn1-GFP intensity median modified Z-score relative to plate median; higher = stronger NRF2 / oxidative stress reporter activation, active = hit call of the paper
Settings: 10 µM; exposure time: 24h
In all, about 2,300 compounds went through this assay and about 330 (14%) showed activity. A selection follows.
Lab note: compare Srxn1-GFP intensity median modified Z-score against -0.3. Equal or greater, write t. Smaller, write f.

INSERT INTO measurements (compound, classification) VALUES
  ('O=C1CC(=O)c2c(c(O)c3ccccc3c2O)C1=O', 't'),
  ('COC(=O)C[C@H]1C(C)(C)[C@@H](O)C2CC3=C4C=C(OC)O[C@@H](c5ccoc5)[C@]4(C)CCC3[C@@]1(C)C2=O (stereo partly drawn)', 't'),
  ('C[C@]12CC[C@@H](O)C[C@H]1CCc1ccccc12', 'f'),
  ('NS(=O)(=O)c1cc2c(cc1Cl)N=C(CSCc1ccccc1)NS2(=O)=O', 'f'),
  ('C[C@]12C=CC(=O)CC1=CCC1C2C(=O)C[C@@]2(C)C1CC[C@]2(O)C(=O)CO (stereo partly drawn)', 't'),
  ('O=C1C=Cc2c(c(O)c3ccccc3c2O)C1=O', 't'),
  ('CNC[C@@H](O)c1ccc(O)c(O)c1', 'f'),
  ('COC(=O)C(c1ccccc1Cl)N1CCc2sccc2C1 (stereo not drawn)', 'f');

----------
Test system: HepG2 Srxn1-GFP reporter cells (+30 nM CDDO-Me)
Assay: Srxn1-GFP intensity median modified Z-score relative to plate median; higher = stronger NRF2 / oxidative stress reporter activation, active = hit call of the paper
Conditions: 10 µM; exposure time: 24h
About 330 (14%) of roughly 2,300 compounds showed activity. Not all results are given here.
Reported Srxn1-GFP intensity median modified Z-score values for the following compounds.
Readout Label: Srxn1-GFP intensity median modified Z-score

INSERT INTO measurements (compound, value_measured) VALUES
  ('CCn1c(O)c(-c2ccccc2)[nH]c1=O [euspeclibcmpd780]', -0.504),
  ('NC[C@H]1O[C@H](OC2[C@@H](N)C[C@@H](N)[C@H](O[C@H]3O[C@H](CO)[C@@H](O)[C@H](N)[C@H]3O)[C@H]2O)[C@H](O)[C@@H](O)[C@@H]1O (some centres not stated) [euspeclibcmpd168]', -0.199),
  ('C=C1C(=O)O[C@@H]2C[C@@]3(C)CCC[C@H](C)C3=C[C@H]12 [euspeclibcmpd1482]', 10.2),
  ('CCCCC(CC)CN1CN(CC(CC)CCCC)CC(C)(N)C1 (configuration not stated) [euspeclibcmpd1036]', 14.2),
  ('C[C@H]1O[C@H](OC[C@@H]2O[C@H](Oc3c(-c4ccc(OCCO)c(OCCO)c4)oc4cc(OCCO)cc(O)c4c3=O)[C@@H](O)[C@H](O)[C@H]2O)[C@@H](O)[C@@H](O)[C@@H]1O [euspeclibcmpd1205]', -0.542),
  ('CC(=O)OCC(=O)[C@@]1(O)CCC2C3CC=C4CC(=O)C=C[C@]4(C)[C@@]3(F)[C@@H](O)C[C@@]21C (some centres not stated) [euspeclibcmpd2402]', -0.201),
  ('C=C1CC2C3=CC(C)=C4CC(=O)CC[C@]4(C)C3CC[C@]2(C)[C@@]1(OC(C)=O)C(C)=O (some centres not stated) [euspeclibcmpd860]', 1.04),
  ('CC1CCN(CCCC(=O)c2ccc(F)cc2)CC1 [euspeclibcmpd1905]', 1.19),
  ('O=C(NCCCCN1CCOCC1)c1ccc(F)cc1', 0.352),
  ('CCN(CC)CCCC(C)N=c1c2ccc(Cl)cc2[nH]c2ccc(OC)cc12 (configuration not stated) [euspeclibcmpd261]', 19.2),
  ('CN(C)N=Nc1[nH]cnc1C(N)=O [euspeclibcmpd80]', 60.7),
  ('CCCCOc1ccc(C(=O)CCN2CCCCC2)cc1 [euspeclibcmpd107]', 3.53),
  ('CC(C)(Oc1ccc(C(=O)c2ccc(Cl)cc2)cc1)C(=O)O [euspeclibcmpd2188]', -0.278),
  ('N#Cc1ccc(C(=O)NCCCCN2CCOCC2)cc1', 0.374),
  ('CCN(CC)CCCC(C)N=c1cc[nH]c2cc(Cl)ccc12 (configuration not stated) [euspeclibcmpd325]', -0.157),
  ('O=C(c1ccc(OCCN2CCCCC2)cc1)c1c(-c2ccc(O)cc2)sc2cc(O)ccc12 [euspeclibcmpd831]', -0.702),
  ('CCOc1cc(CC(=O)N[C@@H](CC(C)C)c2ccccc2N2CCCCC2)ccc1C(=O)O [euspeclibcmpd908]', 0.187);
